# tested_target: PSMA (Homo sapiens, UniProt Q04609)
# Construct: endogenous in cells; host or cells: LNCaP cells
# Sequence (Q04609 whole entry): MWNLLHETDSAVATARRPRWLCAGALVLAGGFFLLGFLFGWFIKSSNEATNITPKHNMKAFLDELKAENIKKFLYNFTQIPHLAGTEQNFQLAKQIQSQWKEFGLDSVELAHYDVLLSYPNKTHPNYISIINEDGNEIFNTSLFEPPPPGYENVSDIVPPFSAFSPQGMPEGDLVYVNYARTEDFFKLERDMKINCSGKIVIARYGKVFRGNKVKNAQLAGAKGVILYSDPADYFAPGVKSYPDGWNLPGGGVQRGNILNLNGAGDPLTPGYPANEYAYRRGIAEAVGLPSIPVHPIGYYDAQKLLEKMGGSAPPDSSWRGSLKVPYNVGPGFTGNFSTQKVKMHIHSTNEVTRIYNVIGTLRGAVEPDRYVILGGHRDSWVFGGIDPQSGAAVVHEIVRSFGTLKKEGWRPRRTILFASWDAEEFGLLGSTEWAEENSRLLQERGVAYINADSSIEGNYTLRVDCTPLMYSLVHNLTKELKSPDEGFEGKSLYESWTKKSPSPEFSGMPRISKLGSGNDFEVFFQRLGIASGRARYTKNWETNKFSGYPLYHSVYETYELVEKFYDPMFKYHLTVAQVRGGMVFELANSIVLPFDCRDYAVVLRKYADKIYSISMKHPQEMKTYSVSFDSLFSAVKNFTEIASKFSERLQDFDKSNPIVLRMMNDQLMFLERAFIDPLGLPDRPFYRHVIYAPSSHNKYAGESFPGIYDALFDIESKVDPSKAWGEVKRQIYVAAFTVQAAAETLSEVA
# Assay type: binding
property: Relative PSMA Binding Affinity (fold over PMPA = 1.0) (fold)

>>> result("O=C(O)CC[C@H](NC(=O)N[C@@H](CCCCNC(=O)NCc1ccc(CC(=O)N[C@@H](CC(=O)O)C(=O)N[C@@H](CC(=O)O)C(=O)N[C@@H](CS)C(=O)O)cc1)C(=O)O)C(=O)O")
11
>>> result("CCCC(=O)OCN(C(=O)[C@@H](NC(=O)[C@H]1CCCCN1C)C(C)CC)[C@H](C[C@@H](OC(C)=O)c1nc(C(=O)N[C@@H](Cc2ccc(O)cc2)C[C@H](C)C(=O)NNC(=O)OCCSSC[C@H](NC(=O)[C@H](CC(=O)O)NC(=O)[C@H](CCCNC(=N)N)NC(=O)Cc2ccc(CNC(=O)NCCCC[C@H](NC(=O)N[C@@H](CCC(=O)O)C(=O)O)C(=O)O)cc2)C(=O)O)cs1)C(C)C (some centres unmarked)")
10
